These entries and their values trace back to ChEMBL document CHEMBL2218924.

Give measured residual activity for each item. Keep answers brief.
# tgt: RAC-gamma serine/threonine-protein kinase (Homo sapiens) (UniProt Q9Y243)
# Sequence (Q9Y243 whole entry): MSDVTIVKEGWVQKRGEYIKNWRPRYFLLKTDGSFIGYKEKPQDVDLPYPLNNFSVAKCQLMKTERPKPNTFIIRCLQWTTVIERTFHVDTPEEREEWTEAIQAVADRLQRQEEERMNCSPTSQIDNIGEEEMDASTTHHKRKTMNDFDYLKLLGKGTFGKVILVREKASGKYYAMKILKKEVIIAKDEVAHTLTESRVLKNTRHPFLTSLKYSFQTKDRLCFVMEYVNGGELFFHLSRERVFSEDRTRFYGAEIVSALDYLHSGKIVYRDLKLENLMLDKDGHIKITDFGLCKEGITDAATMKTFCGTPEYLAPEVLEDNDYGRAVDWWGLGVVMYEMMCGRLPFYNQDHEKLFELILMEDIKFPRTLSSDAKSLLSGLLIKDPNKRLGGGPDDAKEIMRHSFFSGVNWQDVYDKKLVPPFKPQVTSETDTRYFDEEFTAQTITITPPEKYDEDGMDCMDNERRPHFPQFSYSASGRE
# test settings: at 1 µM
Numbers only, in %.

Past entries and their recorded results:
O=c1c2ccccc2[nH]c(=S)n1CCN1CCC(=C(c2ccc(F)cc2)c2ccc(F)cc2)CC1; 93
O=c1cc(-c2cccc3c2Sc2ccccc2S3)oc(N2CCOCC2)c1; 106

Batch lookup, residual activity per entry.
1. CCOc1cc2ncnc(Nc3cccc(Br)c3)c2cc1OCC
2. c1ccc(-c2n[nH]cc2-c2ccnc3ccccc23)nc1

1. 100
2. 96

// each listed molecule needs a value for residual activity
1. Cc1ccc(S(=O)(=O)/C=C/C#N)cc1
2. O=[N+]([O-])c1ccc(-c2nc(-c3ccc(F)cc3)c(-c3ccncc3)[nH]2)cc1
3. CC(=O)O/N=C1\C(=C2\C(=O)Nc3cc(Br)ccc32)Nc2ccccc21

[108, 98, 98]

Give measured residual activity for every item shown.
1. Oc1c2ccccc2c2c3c(cccc13)N=N2
2. O=C1c2ccccc2-[n+]2ccc3c([nH]c4ccccc43)c21
3. O=C1Nc2ccccc2/C1=C1/Nc2ccccc2/C1=N\OCCC(O)CO (stereo unspecified)

89
112
80

Notebook: `Cc1cc2ncc(-c3ccccc3)nc2cc1C` , residual activity read as 90

----------
# tgt: Casein kinase I isoform gamma-1 (Homo sapiens)
# test settings: at 10 µM
# Description: Millipore: Percentage of residual kinase activity of CSNK1G1 at 10uM relative to control. Control inhibitor: Phosphoric acid* at 0.3uM. Buffer: 8 mM MOPS pH 7.0, 0.2 mM EDTA
quantity kind: residual activity (%)
Give bare numbers, in %.

Known results for compounds:
O=C1Nc2cc(Br)ccc2/C1=C1/Nc2ccccc2/C1=N\O; 73
CC(C)n1cnc2/c(=N/c3cccc(Cl)c3)nc(NCCO)[nH]c21; 0
Ic1cccc(CSc2nnc(-c3ccncc3)o2)c1; 84
Oc1c2ccccc2c2c3c(cccc13)N=N2; 48
Cn1nc2c3c(cccc31)C(=O)c1ccccc1-2; 82
NC(=O)c1ccc2[nH]c(-c3ccc(Oc4ccc(Cl)cc4)cc3)nc2c1; 57

I need residual activity for every entry listed below, if you could help.
1. N#Cc1cnc2cnc(NCc3cccnc3)cc2c1Nc1ccc(F)c(Cl)c1
2. CC(=O)c1ccc(N2CCOCC2)cc1O
3. CCOc1cc2ncnc(Nc3cccc(Br)c3)c2cc1OCC
4. COc1cc2ncc(-c3ccccc3)nc2cc1OC
5. CNc1cc2c(Nc3cccc(Br)c3)ncnc2cn1

1. 93
2. 97
3. 87
4. 78
5. 69

----------
# tgt: Protein kinase C theta type (Homo sapiens) (UniProt Q04759)
# Sequence (Q04759 whole entry, looked up): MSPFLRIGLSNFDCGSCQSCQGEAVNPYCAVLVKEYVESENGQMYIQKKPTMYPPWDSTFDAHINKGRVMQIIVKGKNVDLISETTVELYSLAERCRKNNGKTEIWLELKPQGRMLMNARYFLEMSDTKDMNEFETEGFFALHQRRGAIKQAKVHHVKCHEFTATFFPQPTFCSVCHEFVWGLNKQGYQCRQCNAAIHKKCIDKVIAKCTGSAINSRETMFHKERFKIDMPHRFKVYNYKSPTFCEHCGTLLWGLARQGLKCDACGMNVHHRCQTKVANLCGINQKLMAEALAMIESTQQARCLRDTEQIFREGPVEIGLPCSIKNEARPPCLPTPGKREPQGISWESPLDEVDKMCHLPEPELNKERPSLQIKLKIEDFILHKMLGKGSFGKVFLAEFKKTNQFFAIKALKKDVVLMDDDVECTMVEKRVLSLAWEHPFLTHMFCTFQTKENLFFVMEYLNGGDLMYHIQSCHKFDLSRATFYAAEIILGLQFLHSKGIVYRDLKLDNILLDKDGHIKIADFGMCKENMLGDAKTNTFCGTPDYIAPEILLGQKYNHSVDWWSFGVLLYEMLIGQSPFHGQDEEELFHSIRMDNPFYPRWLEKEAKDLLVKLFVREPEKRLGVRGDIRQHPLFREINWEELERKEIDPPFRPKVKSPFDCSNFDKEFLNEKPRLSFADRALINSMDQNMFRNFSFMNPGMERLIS
# test settings: at 1 µM
quantity kind: residual activity

Oc1ccc(Nc2nc(-c3ccc(Cl)cc3)cs2)cc1; 100%

# batch size: 6; output residual activity per entry
1. COc1cccc(-c2cc(=O)c3ccccc3o2)c1N
2. Oc1ccc(-c2nc(-c3ccc(F)cc3)c(-c3ccncc3)[nH]2)cc1
3. Cc1nc2cc3nc(-c4cccs4)cnc3cc2n1C
4. Nc1n[nH]c2nnc(-c3c(-c4ccccc4)nn4ccccc34)cc12
5. Cc1ccc(S(=O)(=O)/C=C/C#N)cc1
6. Cc1ccc(NC2=CC(=O)c3sc(C)nc3C2=O)cc1

92%
101%
110%
47%
97%
88%

----------
# tgt: Dual specificity protein kinase CLK3 (Homo sapiens) (UniProt P49761)
# Sequence (P49761 whole entry, looked up): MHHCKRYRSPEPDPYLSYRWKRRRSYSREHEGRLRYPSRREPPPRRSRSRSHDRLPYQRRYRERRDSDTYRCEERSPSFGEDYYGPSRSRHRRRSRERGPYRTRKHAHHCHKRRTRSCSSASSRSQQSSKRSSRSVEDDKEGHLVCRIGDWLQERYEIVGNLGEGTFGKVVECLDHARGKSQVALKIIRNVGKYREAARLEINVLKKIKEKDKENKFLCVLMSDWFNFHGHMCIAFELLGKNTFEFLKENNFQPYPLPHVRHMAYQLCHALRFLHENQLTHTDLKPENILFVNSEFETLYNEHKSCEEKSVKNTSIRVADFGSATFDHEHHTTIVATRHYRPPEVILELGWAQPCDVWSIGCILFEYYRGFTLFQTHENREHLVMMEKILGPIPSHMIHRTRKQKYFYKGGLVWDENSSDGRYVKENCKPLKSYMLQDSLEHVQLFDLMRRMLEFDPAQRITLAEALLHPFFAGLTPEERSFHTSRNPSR
# test settings: at 10 µM
Please respond with YES when measured residual activity is strictly beneath 90%, and with NO in all other cases.

Examples with answers:
COc1cc2ncnc(Nc3ccc(NC(=O)c4ccccc4)cc3)c2cc1OC; YES
O=C1NC(=O)c2c1c1c3ccccc3[nH]c1c1[nH]c3cc(Br)ccc3c21; YES
O=C1NC(=O)/C(=C\c2ccc3nccnc3c2)S1; YES
O=Nc1c(-c2c(O)[nH]c3ccccc23)[nH]c2ccccc12; YES

Take the molecule `O=C1Nc2cc(Br)ccc2/C1=C1/Nc2ccccc2/C1=N\O` and say whether its residual activity is less than 90%.
YES

Confirm or reject: residual activity of `c1ccc(-c2n[nH]c3c2oc2ccccc23)cc1` lies strictly below 90%
YES

Does the reported residual activity of `CCOc1cc2ncnc(Nc3cccc(Br)c3)c2cc1OCC` stay below 90%?
YES

Please indicate whether the reported residual activity of `c1ccc(-c2n[nH]cc2-c2ccnc3ccccc23)nc1` is strictly below 90%.
NO

I'd appreciate it if you could check whether `Nc1nc(Nc2ccc(S(N)(=O)=O)cc2)nn1C(=S)Nc1c(F)cccc1F` has residual activity smaller than 90%.
YES

API: query returns whether the molecule falls strictly under 90% in residual activity. Query: `COc1ccc(CNc2nc(N(CCO)CCO)nc3c2ncn3C(C)C)cc1`
YES

Record `O=C1Nc2ccc(Br)cc2/C1=C\c1cc2c([nH]1)CCCC2` : is its residual activity strictly below 90%?
YES

Is the reported residual activity for `c1ccc2c(-c3ccncc3)c[nH]c2c1` strictly below 90%?
NO

Please state whether residual activity is below 90% for `O=C1NC(=O)/C(=C/c2ccc3c(c2)OC(F)(F)O3)S1`
NO

In the record for `CC#CC(=O)Nc1cc2c(Nc3ccc(F)c(Cl)c3)ncnc2cn1` , is residual activity less than 90%?
NO

State whether 90% exceeds residual activity recorded for `Cc1cc(Nc2nc(-c3ccccc3)nc3ccccc23)n[nH]1` .
YES

Please indicate whether the reported residual activity of `CO[C@H]1C[C@@H]2CC[C@@H](C)[C@@](O)(O2)C(=O)C(=O)N2CCCC[C@H]2C(=O)O[C@H]([C@H](C)C[C@@H]2CC[C@@H](O)[C@H](OC)C2)CC(=O)[C@H](C)/C=C(\C)[C@@H](O)[C@@H](OC)C(=O)[C@H](C)C[C@H](C)/C=C/C=C/C=C/1C` is strictly below 90%.
NO

Determine whether this molecule shows residual activity lower than 90% (ties excluded): `O=C1NC(=O)c2cc(Nc3ccc(F)cc3)c(Nc3ccc(F)cc3)cc21`
NO

I wonder whether `Cn1cc(/C=C2\C(=O)Nc3ccc(S(N)(=O)=O)cc32)c2ccccc21` has residual activity below 90%. Can you tell?
YES

Consider `Cc1ccc(S(=O)(=O)/C=C/C#N)cc1` . Does its residual activity lie strictly below 90%?
NO

Decide: residual activity of `CCC(=O)Nc1ccc2ncnc(Nc3cccc(Br)c3)c2c1` strictly below 90%?
NO

Dear reviewer, please state whether `N#CC(C#N)=C(N)/C(C#N)=C/c1ccc(O)cc1` has residual activity strictly beneath 90%.
NO

----------
# tgt: Serine/threonine-protein kinase Nek2 (Homo sapiens) (UniProt P51955)
# Sequence (P51955 whole entry): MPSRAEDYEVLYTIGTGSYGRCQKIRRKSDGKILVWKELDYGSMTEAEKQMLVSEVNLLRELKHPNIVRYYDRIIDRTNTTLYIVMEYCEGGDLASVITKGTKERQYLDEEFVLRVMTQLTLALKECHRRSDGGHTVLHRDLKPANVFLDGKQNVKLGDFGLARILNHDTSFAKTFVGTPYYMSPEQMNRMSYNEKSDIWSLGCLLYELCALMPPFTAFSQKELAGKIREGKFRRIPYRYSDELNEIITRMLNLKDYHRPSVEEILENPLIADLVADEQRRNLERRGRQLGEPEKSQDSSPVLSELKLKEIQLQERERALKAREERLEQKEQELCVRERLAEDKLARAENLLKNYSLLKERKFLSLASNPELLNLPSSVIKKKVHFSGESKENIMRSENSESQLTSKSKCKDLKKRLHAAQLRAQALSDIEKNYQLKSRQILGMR
# test settings: at 1 µM
# Description: Millipore: Percentage of residual kinase activity of NEK2 at 1uM relative to control. Control inhibitor: Phosphoric acid* at 0.3uM. Buffer: 8 mM MOPS pH 7.0, 0.2 mM EDTA
quantity kind: residual activity (%)
Numbers only, in %.

N#C/C(=C(\N)Sc1ccc(N)cc1)c1ccccc1C(F)(F)F; 93
c1ccc(-c2n[nH]cc2-c2ccnc3ccccc23)nc1; 82
O=C(Nc1cccc(Nc2nccc(Nc3cccc(C(F)(F)F)c3)n2)c1)C1CC1; 94
O=C1NC(=O)/C(=C/c2ccc3c(c2)OC(F)(F)O3)S1; 97
O=[N+]([O-])c1ccc(-c2nc(-c3ccc(F)cc3)c(-c3ccncc3)[nH]2)cc1; 99
O=C1NC(=O)c2c1c1c3ccccc3[nH]c1c1[nH]c3cc(Br)ccc3c21; 91
O=C1NC(=O)c2cc(Nc3ccc(F)cc3)c(Nc3ccc(F)cc3)cc21; 77

Now for a further compound.
For this compound ( `CCC(=O)Nc1ccc2ncnc(Nc3cccc(Br)c3)c2c1` ), measured residual activity is 73

----------
# tgt: Ephrin type-A receptor 5 (Homo sapiens)
# test settings: at 10 µM
Could you please report measured residual activity for the items listed next?
One number for each entry, in %.

Worked examples, 3 compounds total:
COc1ccc(OC)c2c(=S)c3ccccc3[nH]c12; 96
Cc1nc(-c2ccccc2)c(-c2ccncc2)o1; 29
CC(C)n1cnc2/c(=N/c3cccc(Cl)c3)nc(NCCO)[nH]c21; 43

Fill in residual activity for each of the 2 compounds listed.
1. Oc1ccc(-c2nc(-c3ccc(F)cc3)c(-c3ccncc3)[nH]2)cc1
2. NC(=O)c1ccc2[nH]c(-c3ccc(Oc4ccc(Cl)cc4)cc3)nc2c1

1: 56; 2: 103

Entry `N#C/C(=C(\N)Sc1ccc(N)cc1)c1ccccc1C(F)(F)F` ; assay system Ephrin type-A receptor 5 (Homo sapiens); residual activity recorded at 95

----------
Would you mind telling me the reported residual activity of each entry?
# tgt: Vascular endothelial growth factor receptor 3 (Homo sapiens) (UniProt P35916)
# Sequence (P35916 whole entry): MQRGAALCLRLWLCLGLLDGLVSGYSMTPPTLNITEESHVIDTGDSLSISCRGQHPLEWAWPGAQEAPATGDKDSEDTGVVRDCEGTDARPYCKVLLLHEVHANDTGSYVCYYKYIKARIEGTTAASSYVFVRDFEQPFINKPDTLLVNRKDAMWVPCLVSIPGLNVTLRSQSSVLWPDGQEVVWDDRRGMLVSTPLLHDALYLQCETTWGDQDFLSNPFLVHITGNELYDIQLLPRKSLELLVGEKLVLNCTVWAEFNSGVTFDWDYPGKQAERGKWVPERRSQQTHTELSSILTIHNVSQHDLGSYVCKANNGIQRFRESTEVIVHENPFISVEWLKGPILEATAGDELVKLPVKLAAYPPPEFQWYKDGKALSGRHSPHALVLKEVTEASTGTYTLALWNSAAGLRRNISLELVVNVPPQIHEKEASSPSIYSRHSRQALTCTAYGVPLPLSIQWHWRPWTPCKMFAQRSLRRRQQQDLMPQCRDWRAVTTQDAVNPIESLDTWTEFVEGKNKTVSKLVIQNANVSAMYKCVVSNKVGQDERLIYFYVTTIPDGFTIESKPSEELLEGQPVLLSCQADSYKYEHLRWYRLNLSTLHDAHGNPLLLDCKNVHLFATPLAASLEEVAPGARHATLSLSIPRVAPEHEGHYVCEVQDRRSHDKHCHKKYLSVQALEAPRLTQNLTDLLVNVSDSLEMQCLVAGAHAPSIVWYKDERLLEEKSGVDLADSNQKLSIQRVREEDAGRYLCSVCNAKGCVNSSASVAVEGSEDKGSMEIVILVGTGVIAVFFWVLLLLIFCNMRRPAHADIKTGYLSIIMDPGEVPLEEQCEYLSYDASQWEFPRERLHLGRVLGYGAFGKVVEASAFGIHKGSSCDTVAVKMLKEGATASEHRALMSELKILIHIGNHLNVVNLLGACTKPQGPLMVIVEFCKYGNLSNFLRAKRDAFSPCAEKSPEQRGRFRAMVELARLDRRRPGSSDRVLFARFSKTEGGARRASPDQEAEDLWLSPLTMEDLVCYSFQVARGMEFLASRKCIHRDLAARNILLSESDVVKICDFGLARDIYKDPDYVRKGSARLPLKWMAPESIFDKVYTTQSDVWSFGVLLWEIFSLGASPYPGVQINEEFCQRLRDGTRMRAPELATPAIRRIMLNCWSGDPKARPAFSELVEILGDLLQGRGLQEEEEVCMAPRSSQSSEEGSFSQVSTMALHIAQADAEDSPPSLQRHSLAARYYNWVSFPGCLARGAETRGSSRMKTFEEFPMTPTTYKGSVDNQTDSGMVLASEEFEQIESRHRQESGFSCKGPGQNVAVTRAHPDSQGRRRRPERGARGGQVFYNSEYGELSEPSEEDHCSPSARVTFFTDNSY
# test settings: at 10 µM
Give bare numbers, in %.

Examples with their reported residual activity follow.
Cc1cncc2cccc(S(=O)(=O)N3CCCN(C(=O)CN)C[C@H]3C)c12; 51
Cc1nc2cc3nc(-c4cccs4)cnc3cc2n1C; 2
Nc1n[nH]c2nnc(-c3c(-c4ccccc4)nn4ccccc34)cc12; 23
c1ccc(-c2n[nH]cc2-c2ccnc3ccccc23)nc1; 10
O=C(O)c1ccc2c3c1cccc3c(=O)n1c3ccccc3nc21; 43

Could you now look at the following molecule, please?
So for `Oc1n[nH]c2nnc(-c3c(-c4ccccc4)nn4ccccc34)cc12` , the logged residual activity turned out to be 60
